Target: hPD1 (soluble, ELISA of Example 20) (human, UniProt Q15116 25-167, limits assumed)
Sequence (Q15116 25-167 limits assumed): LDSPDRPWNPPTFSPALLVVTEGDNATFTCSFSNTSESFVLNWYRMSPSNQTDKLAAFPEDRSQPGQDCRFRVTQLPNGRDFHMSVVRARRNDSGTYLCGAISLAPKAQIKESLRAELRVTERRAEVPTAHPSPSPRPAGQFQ
Experiment: ELISA, hPD1
Consider the following binders; for each one, report its pEC50.
Answers are plain numbers, as −log10 of the molar value.

Worked set:
BINDER	MEASURED ENDPOINT	VALUE REPORTED
m4D1 (antibody, V domains shown, R3A9 derivative) VH: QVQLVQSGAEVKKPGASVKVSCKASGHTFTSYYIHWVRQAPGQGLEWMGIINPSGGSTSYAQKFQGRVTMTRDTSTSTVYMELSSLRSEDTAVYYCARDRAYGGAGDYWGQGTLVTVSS VL: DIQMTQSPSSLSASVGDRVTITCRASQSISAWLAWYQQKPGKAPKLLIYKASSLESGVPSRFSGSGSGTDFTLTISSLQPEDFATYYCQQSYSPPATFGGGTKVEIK	pEC50	9.66
38B2 (antibody, V domains shown, 24H9 derivative, IgG; also called 780_54; hPD1 Ab (38B2)) VH: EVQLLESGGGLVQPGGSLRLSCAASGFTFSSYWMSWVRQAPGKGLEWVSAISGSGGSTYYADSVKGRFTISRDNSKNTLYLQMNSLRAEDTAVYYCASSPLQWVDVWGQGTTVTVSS VL: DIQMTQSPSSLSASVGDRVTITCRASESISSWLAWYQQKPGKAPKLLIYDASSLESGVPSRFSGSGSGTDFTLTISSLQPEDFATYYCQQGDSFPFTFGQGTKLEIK	pEC50	9.90
m2A1 (antibody, V domains shown, R3A9 derivative; also called m2AM (apparent misprint)) VH: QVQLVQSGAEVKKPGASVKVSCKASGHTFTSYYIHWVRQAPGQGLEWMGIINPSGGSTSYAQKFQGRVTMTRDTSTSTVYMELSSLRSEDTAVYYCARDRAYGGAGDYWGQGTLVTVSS VL: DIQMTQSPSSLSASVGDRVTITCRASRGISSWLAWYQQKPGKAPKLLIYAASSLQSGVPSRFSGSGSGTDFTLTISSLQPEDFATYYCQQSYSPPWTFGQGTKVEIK	pEC50	9.83
m3A7 (antibody, V domains shown, R3A9 derivative; also called 7115C) VH: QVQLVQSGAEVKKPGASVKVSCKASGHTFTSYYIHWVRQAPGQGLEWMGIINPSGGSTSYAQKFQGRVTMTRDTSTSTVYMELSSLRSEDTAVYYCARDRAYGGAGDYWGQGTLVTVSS VL: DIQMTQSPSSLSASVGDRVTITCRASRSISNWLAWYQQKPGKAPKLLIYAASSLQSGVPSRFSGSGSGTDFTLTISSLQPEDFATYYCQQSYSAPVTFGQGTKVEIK	pEC50	9.20

Noted for m2C1 (antibody, V domains shown, R3A9 derivative; also called m3CM (apparent misprint)) VH: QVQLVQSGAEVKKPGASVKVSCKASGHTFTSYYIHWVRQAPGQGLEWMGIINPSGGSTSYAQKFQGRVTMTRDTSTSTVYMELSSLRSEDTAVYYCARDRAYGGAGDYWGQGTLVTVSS VL: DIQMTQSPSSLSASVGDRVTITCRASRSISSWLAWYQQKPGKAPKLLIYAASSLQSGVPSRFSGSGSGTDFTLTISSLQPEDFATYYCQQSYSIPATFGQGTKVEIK : its pEC50 reads 9.83
